I'd appreciate it if you could supply melting point values for the items below.

Inquiry: Tell me melting point reported for CN1CN(S(=O)(=O)F)c2ccccc21.O=S(=O)(O)C(F)(F)F
Reply text: 121 to 125 °C

Inquiry: Tell me melting point reported for COc1cc(C=O)ccc1OS(=O)(=O)F
Reply text: 50.8 to 51.8 °C

Inquiry: Tell me melting point reported for O=S(=O)(F)N1CCC(c2ccccc2)CC1
Reply text: 83 to 84 °C

Inquiry: Tell me melting point reported for O=[N+]([O-])c1ccc(OS(=O)(=O)F)c2ncccc12
Reply text: 86.9 to 87.9 °C

Inquiry: Tell me melting point reported for O=S(=O)(F)N[C@@H]1CCC[C@H]1OCc1ccccc1
Reply text: 76 to 78 °C

Inquiry: Tell me melting point reported for O=S(=O)(F)N1CCN(S(=O)(=O)F)CC1
Reply text: 246 to 248 °C

Inquiry: Tell me melting point reported for O=S(=O)(F)c1ccc(-c2ccc(S(=O)(=O)F)cc2)cc1
Reply text: 95.3 to 96.6 °C

Inquiry: Tell me melting point reported for Cc1ccc(C2CCCN2S(=O)(=O)F)cc1 (centres unmarked)
Reply text: 53 to 57 °C

Inquiry: Tell me melting point reported for O=S(=O)(F)NCCc1ccc(O)cc1
Reply text: 90 to 92 °C

Inquiry: Tell me melting point reported for COc1cc(C(=O)NC2CCCN(S(=O)(=O)F)C2)cc(OC)c1OC (centres unmarked)
Reply text: 184 to 186 °C

Inquiry: Tell me melting point reported for O=C(/C=C/c1ccc(S(=O)(=O)F)cc1)c1ccccc1
Reply text: 92.8 to 94.2 °C

Inquiry: Tell me melting point reported for COc1cc(/C=C/c2ccc(OS(=O)(=O)F)cc2)cc(OC)c1
Reply text: 80.1 to 81.1 °C

Inquiry: Tell me melting point reported for Cc1ccc2c(Cl)cc(Cl)c(OS(=O)(=O)F)c2n1
Reply text: 64.6 to 66.2 °C

Inquiry: Tell me melting point reported for CC(C)(C)OC(=O)[C@H](NS(=O)(=O)F)c1ccccc1
Reply text: 81 to 84 °C
